Attribution: paper PMC6199744

# TARGET_DESC: HeLa cell extract proteins (Homo sapiens)
# Construct: endogenous in cells; host or cells: HeLa cell extract
# Sequence (O15427 whole entry): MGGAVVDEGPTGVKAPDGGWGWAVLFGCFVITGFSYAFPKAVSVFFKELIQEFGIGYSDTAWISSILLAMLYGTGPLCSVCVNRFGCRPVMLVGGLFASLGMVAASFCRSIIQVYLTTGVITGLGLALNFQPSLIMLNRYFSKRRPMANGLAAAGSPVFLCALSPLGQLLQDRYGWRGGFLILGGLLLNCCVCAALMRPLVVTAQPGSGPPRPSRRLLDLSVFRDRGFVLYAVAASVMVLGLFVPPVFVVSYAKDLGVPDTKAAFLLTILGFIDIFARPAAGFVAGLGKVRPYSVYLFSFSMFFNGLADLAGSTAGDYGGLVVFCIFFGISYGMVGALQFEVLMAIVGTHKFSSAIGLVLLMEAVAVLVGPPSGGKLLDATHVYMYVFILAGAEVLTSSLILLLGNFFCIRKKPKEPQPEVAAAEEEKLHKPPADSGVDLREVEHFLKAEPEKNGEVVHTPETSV
# Format: binding
# CONDITION_CONTEXT: HeLa; protein SLC16A3
PROPERTY_NAME: fold changes relative to vehicle control
Reply briefly: the number, and no unit.

>>> recorded_value("Nc1nc2cccc(-c3ccccc3)c2n1Cc1ccc(Cl)c(Cl)c1 [compound 3]")
0.94

Report fold changes relative to vehicle control for NCCCNc1ccc(C(=O)NC(CCC(=O)O)C(=O)O)cc1 (stereo not drawn) [compound 7] please.
0.94

Proceed to NCCOCCOCC(=O)Nc1nc2ncc(CNc3ccc(C(=O)NC(CCC(=O)O)C(=O)O)cc3)nc2c(=O)[nH]1 (stereo not drawn) [compound 6]
0.85

Proceed to Nc1nc2c(c(=O)[nH]1)N(C=O)C(CNc1ccc(C(=O)N[C@@H](CCC(=O)O)C(=O)O)cc1)CN2 (stereo partly drawn) [LEU, leucovorin]
0.96

Proceed to CCCCCCOc1ccc(Cc2cnc(N)nc2N)cc1 [compound 1]
0.83

Proceed to CCCCCCOc1cccc(Cc2cnc(N)nc2N)c1 [compound 2]
0.94
